Experiment: NCI Yeast Anticancer Drug Screen. Data for the mlh1 rad18 strain (AID 175)
Details: S. cerevisiae mlh1 rad18 strain growth inhibition; at 5.0 µM (retest, dose inferred, filed as 0.5); hits give high values
Protocol: Growth inhibition of yeast strains with defined genetic alterations is measured as a screen for potential anti-cancer activity. Selected strains with alterations in DNA damage repair or cell cycle control were exposed to compounds and growth inhibition was measured relative to vehicle treated controls. The strain used in this assay is mlh1 rad18
Compounds without any hit were thinned out: in the full panel of roughly 79,000, 15% have a hit.
Assign growth inhibition to each entry below.
API: value field is a number in %; no unit string.

Q. For the molecule "Cc1cccc(/C=N/Nc2ccccn2)n1" , report growth inhibition.
A. 21

Q. For the molecule "CCOC(=O)C(C=O)(C=O)c1ccccc1" , report growth inhibition.
A. -1

Q. For the molecule COc1ccc2c(c1)OC(c1ccccc1O)CC2=O (configuration not stated) , report growth inhibition.
A. -70

Q. For the molecule "Cc1cccc(Cc2ccc(Cl)cc2)c1O" , report growth inhibition.
A. -2

Q. For the molecule "O=C(c1ccccc1)N(C(=S)N(C(=O)c1ccccc1)c1ccccc1)c1ccccc1" , report growth inhibition.
A. -1

Q. For the molecule CCCC1CCCC1(CC(=O)c1ccccc1)C(=O)O (configuration not stated) , report growth inhibition.
A. 47

Q. For the molecule "Cc1ccc(OC/C=C/c2ccc(Cl)cc2)cc1" , report growth inhibition.
A. 5

Q. For the molecule "c1csc(CNCc2cccs2)c1" , report growth inhibition.
A. 0

Q. For the molecule COc1cccc2c1OC(c1cccc3ccccc13)C([N+](=O)[O-])=C2 (configuration not stated) , report growth inhibition.
A. 49

Q. For the molecule COc1c(O)ccc2c1CN1CCc3cc4c(cc3C1C2)OCO4 (configuration not stated) , report growth inhibition.
A. 11

Q. For the molecule "C=C1C[C@H]2C=Nc3cc(OCCCOc4cc5c(cc4OC)C(=O)N4CC(=C)C[C@H]4C=N5)c(OC)cc3C(=O)N2C1" , report growth inhibition.
A. 92

Q. For the molecule "C=CCOC(=O)SC(=S)OCN(C)C" , report growth inhibition.
A. 1

* * *

assay: NCI Yeast Anticancer Drug Screen. Data for the bub3 strain (AID 167); conditions: S. cerevisiae bub3 mutant strain, at 50.0 µM (retest, dose inferred, filed as 5.0), hits give high values
The panel holds about 79,000 compounds, 15% with a hit somewhere; the sample as a whole holds those more often. Active and inactive are the calls of the source. No stated cut-off is given here; in the data, active means growth inhibition above about 70%; inactive means the rest.
Quantity Measured: growth inhibition

Q. For the compound "COc1ccc(/C(Cl)=C(\C=O)c2ccc(Cl)c(Cl)c2)cc1" , report growth inhibition.
A. 82% (active)

Q. For the compound "O=[N+]([O-])c1ccc(S(=O)(=O)Cc2ccccc2)c2nonc12" , report growth inhibition.
A. 99% (active)

Q. For the compound CN(Cc1cc(Cl)cc(Cl)c1)CC(C(=O)c1ccccc1)c1ccccc1 (centres undefined) , report growth inhibition.
A. 94% (active)

Q. For the compound "Nc1cc(Br)c2cccnc2c1O" , report growth inhibition.
A. 98% (active)

Q. For the compound "O=c1cc(N=Nc2ccc(Cl)c(Cl)c2)[nH]c(=O)[nH]1" , report growth inhibition.
A. 97% (active)

Q. For the compound "CCOC(=O)Nc1c(F)cc(F)cc1F" , report growth inhibition.
A. -2% (inactive)

Q. For the compound "CCOC(=O)c1ccc(-n2c(C)nc3ccc(Br)cc3c2=O)cc1" , report growth inhibition.
A. -1% (inactive)

Q. For the compound "CCN(CC)CCCCCCNc1cc(C)cc2ccc(C)nc12" , report growth inhibition.
A. 62% (inactive)

Q. For the compound "COc1ccc(/C=N/Nc2cc(C)nc3cc4c(cc23)OCO4)c2ccccc12" , report growth inhibition.
A. 37% (inactive)

Q. For the compound CC(C)(C)C(=O)CC(Cc1nccc2ccccc12)c1ccco1 (centres undefined) , report growth inhibition.
A. 94% (active)

Q. For the compound CC12CCC3C(CCC4CC(O)CCC43C)C1CC=CO2 (centres undefined) , report growth inhibition.
A. 98% (active)

Q. For the compound Cc1[nH]c2ccccc2c1C(C)CC(O)c1ccccc1 (centres undefined) , report growth inhibition.
A. 67% (inactive)

Q. For the compound "COc1cc2c[n+](C)c3c4cc(OC)c(OCc5ccccc5)cc4c(OCc4ccccc4)cc3c2cc1OC" , report growth inhibition.
A. 95% (active)

Q. For the compound "c1ccc2cc3c(cc2c1)Nc1c2ccccc2nc2cccc-3c12" , report growth inhibition.
A. 78% (active)

Q. For the compound "N#CCN1CCCCCc2ccccc21" , report growth inhibition.
A. -32% (inactive)

Q. For the compound "CNC(=S)N(C)C(=S)Nn1c(=O)c(C)nn(C)c1=S" , report growth inhibition.
A. 77% (active)

Q. For the compound "O=C(/C=C/c1ccc(O)cc1)c1cc(Cl)ccc1O" , report growth inhibition.
A. 97% (active)

Q. For the compound "CCOC(=O)Cc1csc2[n+]1C(=O)/C(=C\c1cccc(Cl)c1Cl)S2" , report growth inhibition.
A. 52% (inactive)

Q. For the compound "O=C1C=C(OCC=C(C(F)(F)F)C(F)(F)F)C(=O)c2ccccc21" , report growth inhibition.
A. 52% (inactive)

Q. For the compound "O.O.O=Cc1cc(Br)cc(Br)c1O.O=Cc1cc(Br)cc(Br)c1O.[Co]" , report growth inhibition.
A. 99% (active)

Q. For the compound "Nc1ccc(N=Nc2ccccc2)c2ccccc12" , report growth inhibition.
A. 99% (active)

Q. For the compound C=C(C)C1(C(=O)OCC(Cl)(Cl)Cl)NC(=O)C(NC(=O)COc2ccccc2)=CO1 (centres undefined) , report growth inhibition.
A. 44% (inactive)

Q. For the compound "CC(C)NC(=O)OCCN=C1c2ccccc2CCc2ccccc21" , report growth inhibition.
A. 97% (active)

Q. For the compound C/C=C/C/C=C/CCC(=O)C1OC1C(N)=O (centres undefined) , report growth inhibition.
A. 98% (active)

Value source: PubChem BioAssay (NCI)
